These measurements were taken from PubChem BioAssay.

System: TRPC4 beta (transient receptor potential cation channel C4), mouse
Assay text: potentiation of DAMGO EC20 TRPC4 response – cell-based, Fluo-4, HEK293 TRPC4beta/mu-opioid, confirmation (AID 2555)
Condition: DAMGO EC20, Fluo-4 calcium flux, at 10 µM
The source made the active and inactive calls.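 How the source made its calls: active means primary screen hit whose calcium fluorescence ratio, in both repeats, exceeds the weak agonist control mean by 3 SD; inactive means the rest.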
The categories you may choose from are active, inactive

                                   compound       cat
0  CCOc1ccc(CN2CCNC(=O)C2CC(=O)NCCc2ccccn2)cc1 (centres undefined)  inactive

Call for entry CNc1nc(SCc2ccccc2Cl)nc2c1CCCC2 : inactive

Please indicate how the test categorized COc1ccc(Cn2nnnc2C(c2cc3cc(C)ccc3[nH]c2=O)N2CCN(C)CC2)cc1 (centres undefined) . inactive

Hi team, can someone confirm the assay call for CC1=C(C(=O)NCCN2CCN(C)CC2)C2(CCC(C)CC2)OC1=O (centres undefined) ? inactive

How did this test come out for CCc1ccc(/C=C2/SC(=S)N(CCCC(=O)Nc3ccccc3C(=O)O)C2=O)cc1 ? inactive

Called result for CN(C(=O)COC(=O)c1sc2ccccc2c1Cl)C1CCCCC1 active

Just curious, what result did CCOc1ccc(Br)cc1/C=N/O get here? inactive

What did this assay record as the result for CC1(C)CN=c2s/c(=C\c3ccc(Cl)cc3)c(=O)n2C1 ? inactive

Fill in: this test's call for Cc1cccc(N2CCN(Cc3ccoc3)CC2)c1C is ___ inactive

Hey, what did the test say about c1ccc(-c2ccccc2OCCOCCN2CCCCC2)cc1 ? inactive

Hello, I am checking results. What call was entered for COc1ccc(CCN(C)C(=O)C2CCCN(C3CCN(Cc4ccccc4)CC3)C2)cc1OC (centres undefined) ? inactive

Look up the recorded call for O=C(NC1CCN(Cc2ccccc2)CC1)C12CC3CC(CC(C3)C1)C2 in this test. inactive

Name the outcome recorded for CSCC[C@H](NC(=O)N1CCn2c1nc1ccccc12)C(=O)NCc1ccc(F)cc1 in the assay. active

Which outcome was entered for the compound Cc1cc(C)c2[nH]c(=O)c(CN(Cc3cccnc3)C(=S)NCCCN(C)C)cc2c1 in this test? inactive
